B1: ZNF449 (parent)
chain: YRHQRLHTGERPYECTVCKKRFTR

# Variants of: B1
# EXPERIMENT DESCRIPTION: protein stability index of a GFP-peptide fusion (GPS, HEK-293T) (PSI 1-6); higher = more stable;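 also: lentivirally expressed fusions sorted by FACS into six bins by GFP to DsRed ratio, PSI derived from sequencing read proportions per bin multiplied by bin number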
# TEST CONTEXT: c terminus: a fixed tail appended
Could you please report measured protein stability index for the items listed next?
Answer with a number only.

Record L6D . Reported protein stability index: 2.37

For reference, reported protein stability index for H7I stands at 2.16

Documented protein stability index of K20S : 2.08

Entry Y13P , protein stability index reported as 2.35

The values you see were collected from the supplement of paper PMC10567573.
